System: PXR homodimer (NR concentration 270 nM)
Assay: PBM binding z-score (relative to random genomic background probes); higher = stronger binding; sequences stand for … in GC…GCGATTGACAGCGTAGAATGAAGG
quantity-name: PBM binding z-score
Answers are plain numbers.

sequence	PBM binding z-score
CGTCAAATTTCAACTAAGGTAACGTAAAGCACGC	0.588
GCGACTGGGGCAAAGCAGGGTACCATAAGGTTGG	-0.367
GCAGACAGGTGAAACGCAGGTAACTGAGGGTGGC	-0.434
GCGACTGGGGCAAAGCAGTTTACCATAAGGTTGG	-0.386
ATATGTAGGTTAGCTGGGATCATTCAGACTAGGC	0.543
GGAACGAGGGCATTCGAGTTGATACCATGGCGAT	1.75
CCCACTGGGGCAAGGTTACCATAACGCACAGCCA	-0.536
GGAACGAGGGCATTCGAGTTGATAGCCTGGCGAT	1.57
ATCGCAAGGTCGAGGTGAGTATAGAGAAAGGGAA	-0.378
ATCTCTAGGTAAAAGTTCAATGAATCCCGAGGAT	2.8

List reported PBM binding z-score for each of these sequences:
1. CATACTAGGTCACGAAAGGTCAAAGTCGAATGAC
2. ATCTCTAGGTTAAGTTCAGTGAAAGATCGATAGA

[3.85, 2.53]

List reported PBM binding z-score for each of these sequences:
1. CTCGATAGGTCGTGCTCAGGTGAGTATACCAAAC
2. GCCATTAGTTGAAAGGGCAACCGAATGATTCTCG
3. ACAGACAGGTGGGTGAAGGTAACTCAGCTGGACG
4. ACAGACAGGTGATGAGGGTAACTCAGGCTATCAT
5. TTACCAAGGTGAGATGAGGTCGTTGATCCAACTC
6. TGTCGAAGTTCAAAGGTAACGTAAGTATCCACAC
7. TCATATAGGTAATACAGATGAAAGTCGGCATCTA

-0.52
0.067
0.171
-0.131
0.58
1.65
0.387

List reported PBM binding z-score for each of these sequences:
1. AGAATAAGGTTATTAAGATCAGGGAATTGCGGTC
2. TCTTGTAGATCACAGGTTAAGAAAGCCGAAGCCT
3. GCTTGTAGACCAAGGTTAAGAAAGACTAAGCTAA
4. TCAGATAGGTAAAAGGTGAAAGTCGGTGTGGTAA
5. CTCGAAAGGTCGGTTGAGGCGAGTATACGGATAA

1. 0.666
2. -0.359
3. -0.358
4. 0.95
5. -0.214

List reported PBM binding z-score for each of these sequences:
1. CATCCAAGGTCATAGGAGGTCAGTGAAGACAGAT
2. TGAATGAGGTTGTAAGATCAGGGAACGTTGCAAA

[4.63, -0.318]
